Ref: patent US20240246968A1

- Study Target: interaction between recombinant K-Ras4B G12C mutant protein and cRAF RAS-binding domain (cRAF-RBD) (Homo sapiens, UniProt P01116, G12C)
- Sequence (P01116 with tags, fused parts or gaps isoform P01116-2 G12C): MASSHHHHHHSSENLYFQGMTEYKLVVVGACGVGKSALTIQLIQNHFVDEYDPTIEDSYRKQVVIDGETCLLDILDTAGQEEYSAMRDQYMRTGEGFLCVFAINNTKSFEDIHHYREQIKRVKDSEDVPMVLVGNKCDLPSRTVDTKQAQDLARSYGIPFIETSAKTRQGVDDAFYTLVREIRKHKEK
- Measurement Description: Inhibitory activity on interaction between KRAS G12C and cRAF (Alpha technology)
- Settings: GMPPNP-bound KRAS G12C incubated with compound at 25° C. for 1 hour, then cRAF-RBD; Alpha signal
Reported pIC50 values for the following compounds.
pIC50 here is simply -log10 of the concentration when that concentration is written in mol/L.

Answered cases to consult:
- CO[C@H]1C[C@H](NC/C=C/C(=O)Nc2c(F)cc(C(=O)c3ccc4c(-c5cc6nc(C)n(C)c6cc5C(F)(F)F)cccn34)cc2F)C1 [Example 54]: 7.17
- CCc1cc(C(=O)c2cc(F)c(NC(=O)/C=C/CN[C@H]3CC[C@H](OC)CC3)c(F)c2)n2cccc(-c3c(C)cc4c(nc(C)n4C)c3Cl)c12 [Example 89]: 7.66
- CO[C@H](C)c1nc2c(Cl)c(-c3cccn4c(C(=O)c5cc(F)c(NC(=O)/C=C/CN[C@H]6CC[C@H](OC)CC6)c(F)c5)ccc34)c(C)cc2n1C (single isomer, unassigned) [Example 47]: 7.80
- C#Cc1cc2c(nc(C)n2C)c(Cl)c1-c1cccn2c(C(=O)c3cc(F)c(NC(=O)/C=C/CN[C@H]4CC[C@H](OC)CC4)c(F)c3)ccc12 [Example 43]: 7.06
- Cc1cc2c(ncn2C)c(Cl)c1-c1cccn2c(C(=O)c3cc(F)c(NC(=O)/C=C/CNC(C)(C)C)c(F)c3)ccc12 (single isomer, unassigned) [Example 13-1]: 7.34
- Cc1cc2c(nc(C)n2C)c(Cl)c1-c1cccn2c(C(=O)c3cc(F)c(NC(=O)/C=C/CNC(C)(C)C)c(F)c3)ccc12 (single isomer, unassigned) [Example 18-1]: 7.54

Query string: I'd like to know its pIC50. The compound in question is CO[C@H]1CC[C@H](NC/C=C/C(=O)Nc2c(F)cc(C(=O)c3ccc4c(-c5c(C(F)(F)F)cc6c(nc(C)n6C)c5Cl)cccn34)cc2F)CC1 (single isomer, unassigned) [Example 32-1]
Result string: 7.68

Query string: Name the reported pIC50 value associated with the compound CO[C@H]1CC[C@H](NC/C=C/C(=O)Nc2c(F)cc(C(=O)c3ccc4c(-c5c(C)cc6c(nc(CO)n6C)c5Cl)cccn34)cc2F)CC1 [Example 58]
Result string: 7.46

Query string: Please look up its pIC50: COc1cc2c(ncn2C)c(Cl)c1-c1cccn2c(C(=O)c3cc(F)c(NC(=O)/C=C/CN[C@H]4CC[C@H](OC)CC4)c(F)c3)ccc12 (single isomer, unassigned) [Example 41-2]
Result string: 7.13

Query string: What value of pIC50 has been recorded for this entry: COc1cc2c(nc(C)n2C)c(Cl)c1-c1cccn2c(C(=O)c3cc(F)c(NC(=O)/C=C/CN[C@H]4CC[C@H](OC)CC4)c(F)c3)ccc12 (single isomer, unassigned) [Example 35-2]
Result string: 7.28

Query string: Please give the measured pIC50 for this compound: CO[C@H]1CC[C@H](NC/C=C/C(=O)Nc2c(F)cc(C(=O)c3c[nH]c4c(-c5cc6nc(C)n(C)c6cc5C(F)(F)F)cccc34)cc2F)CC1 [Example 45]
Result string: 7.12
